B1: glmS ribozyme (parent)
chain: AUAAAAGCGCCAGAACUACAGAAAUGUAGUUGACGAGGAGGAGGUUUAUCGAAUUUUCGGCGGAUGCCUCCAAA

Variants of: B1
test: self-cleavage kobs at 10000 uM GlcN6P; higher = faster cleavage; RNA array
run parameters: with glucosamine-6-phosphate
Fewer inactive variants are shown than the library holds.
assay metric: self-cleavage kobs at 10000 uM GlcN6P (s⁻¹)
Provide the reading as a plain figure in s⁻¹.

Reference set, count: 5
# sequence string, display unit, self-cleavage kobs at 10000 uM GlcN6P
measured = [
    ("AUAAAAGCGCCAGAACUACAGAAAUGUAGUUGACGAGGAGAAGGUUUAUCGAAAUUUCGGCGGAUGCCUCCAAA [G41A U54A]", "s⁻¹", 0.000101),
    ("AUAAAAGCGCCAGAACUACAGAAAUGUAGUUGACGAGGAGGAGGUUUAUCGAAUUUUCGGCGGAUGCCUAGAAA [C70A C71G]", "s⁻¹", "5.37e-05"),
    ("AUAAAAGCGCCAGAACUACAGAAAUGUAGUUGACGAGGAGGAGAUUUAUCGAAUUUUCGGCGGAUGCCUCCAAA [G44A]", "s⁻¹", 0.000426),
    ("AUAAAAGCGCCAUAACUACAGAAAUGUAGUUGACGAGGGGGAGGUUUAUCGAAUUUUCGGCGGAUGCUUCCAAA [G13U A39G C68U]", "s⁻¹", 0.000334),
    ("AUAAAAGCGCCAGAACUACAGAAAUGUAGUUGACGAGGAGGAGGUUUAUCGAAUUUUCGGCGGAAGCCUCGAAA [U65A C71G]", "s⁻¹", 0.000383),
]

# input variant: AUAAAAGCGCCACAAUUACAGAAAUGUAGUUGACGAGGAGGAGGUUUAUCGAAUUUUCGGCGGAUGCCUCUAAA [G13C C16U C71U] ; wanted: its self-cleavage kobs at 10000 uM GlcN6P 0.000169

# get_value(readout='self-cleavage kobs at 10000 uM GlcN6P', item= AUAAAAGCGCCAGAACUACAGAAAUGUAGGUGACGAGGAGGGGGUUUAUCGAAUGUUCGGCGGAUGCCUCCAAA [U30G A42G U55G] ) 0.00677

Return reported self-cleavage kobs at 10000 uM GlcN6P; argument: AUAAAAGCGCCAGAACUACAGAAAUGUAGUUGACGAGGAGGAGGUAUAUCGAAUCUUCGGCGGAUGCCUCCAAA [U46A U55C] 0.0029

Need self-cleavage kobs at 10000 uM GlcN6P, item AUAAAAGCGCCAGAACUACAGAAAUGUAGUUGACGAGGAGGAGAUUUAUCGAAUUGUCGGCGGAUGCCUCCAAA [G44A U56G] 0.00019

Reported self-cleavage kobs at 10000 uM GlcN6P, variant AUAAAAGCGCCAGAACUACAGAAAUGUAGGUGACGAGGAGGAGGUUUAUCGAAUUUUCGGCGGAUGCCUCGAAA [U30G C71G] : ____ 0.000543

The measurements presented in this section are drawn from the supplement of paper PMC7125110.
